These data points were gathered from the supplement of paper PMC7877785.

assay: self-splicing fitness, log relative to wild type (ln ratio); higher = more splicing; Tetrahymena group I intron in knt gene, E. coli kanamycin selection, DiMSum; sequences stand for … in CUCUCU…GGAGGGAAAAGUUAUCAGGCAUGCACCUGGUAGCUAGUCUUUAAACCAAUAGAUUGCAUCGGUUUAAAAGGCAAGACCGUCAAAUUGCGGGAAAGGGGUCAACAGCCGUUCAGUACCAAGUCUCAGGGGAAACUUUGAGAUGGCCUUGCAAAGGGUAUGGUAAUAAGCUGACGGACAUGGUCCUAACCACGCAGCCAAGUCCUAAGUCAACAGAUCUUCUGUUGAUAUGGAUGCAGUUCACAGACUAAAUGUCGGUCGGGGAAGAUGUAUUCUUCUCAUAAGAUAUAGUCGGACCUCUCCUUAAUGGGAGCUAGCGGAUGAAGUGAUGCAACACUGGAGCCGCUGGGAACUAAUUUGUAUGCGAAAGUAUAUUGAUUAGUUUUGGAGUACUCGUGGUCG; details: 37 °C;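 note: selection with 25 µg/mL kanamycin versus none on LB agar overnight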
Assign rule met whenever self-splicing fitness (ln) does not fall below -2; assign rule not met whenever it does.

UGAAAGCAAUAUUACGUGGC    rule not met
UACAAGCAAUAUUACGAUAU    rule met
UGGUAGCAAUAUUACGCCUA    rule met
AGCUAGCAAUAUUACGCCAA    rule met
UGCGAGCAAUAUUACGGGCC    rule met
GACUAGCAAUAUUACGUGGU    rule not met
AUCAAGCAAUAUUACGCGAA    rule met
AAGUAGCAAUAUUACGCUCU    rule met
UAAAAGCAAUAUUACGAUCU    rule met
UUGGAGCAAUAUUACGCGGG    rule met
ACAAAGCAAUAUUACGGCCC    rule met
GUUAAGCAAUAUUACGCCUC    rule met
CUGGAGCAAUAUUACGAUUA    rule met
CCACAGCAAUAUUACGCGAG    rule met
AGAUAGCAAUAUUACGCGUC    rule met
UAAGAGCAAUAUUACGAUUA    rule met
CUGCAGCAAUAUUACGGGCG    rule met
AACGAGCAAUAUUACGCGAA    rule not met
UCUGAGCAAUAUUACGAAGG    rule met
CACAAGCAAUAUUACGGUGG    rule met
AUUUAGCAAUAUUACGUCCA    rule met
CCUCAGCAAUAUUACGCUUA    rule not met
GAGCAGCAAUAUUACGAAGG    rule not met
UACGAGCAAUAUUACGAUUU    rule met
GAUGAGCAAUAUUACGCACC    rule met
UGUGAGCAAUAUUACGGUAC    rule not met
UAUCAGCAAUAUUACGACGA    rule met
UAGUAGCAAUAUUACGACCU    rule met
UGCAAGCAAUAUUACGCGUU    rule met
AUGGAGCAAUAUUACGUAGG    rule not met
GUAAAGCAAUAUUACGGGCG    rule met
GUCUAGCAAUAUUACGGCUU    rule met
GAAGAGCAAUAUUACGUCUC    rule met
GUUUAGCAAUAUUACGAUAG    rule met
GCCAAGCAAUAUUACGGGCU    rule not met
ACGCAGCAAUAUUACGCCCC    rule met
CGCUAGCAAUAUUACGGGAC    rule not met
CCUAAGCAAUAUUACGUCAU    rule not met
CCCUAGCAAUAUUACGUGAU    rule not met
UAAUAGCAAUAUUACGGCAG    rule met
GCUCAGCAAUAUUACGGAGG    rule met
GUGUAGCAAUAUUACGAGCG    rule met
UGAAAGCAAUAUUACGCGGC    rule not met
AGUUAGCAAUAUUACGGGGG    rule met
AGUUAGCAAUAUUACGGGAG    rule met
UGUGAGCAAUAUUACGCCGC    rule met
AUGGAGCAAUAUUACGUAUC    rule met
UAUGAGCAAUAUUACGUCAC    rule not met
CGCGAGCAAUAUUACGACCU    rule met
GUCAAGCAAUAUUACGCCAG    rule not met
UUGUAGCAAUAUUACGAGAU    rule not met
GUGAAGCAAUAUUACGUCCU    rule met
CAUCAGCAAUAUUACGUCAA    rule not met
UCACAGCAAUAUUACGCCAC    rule not met
GGCGAGCAAUAUUACGCCUA    rule met
CGCAAGCAAUAUUACGACCC    rule met
ACAUAGCAAUAUUACGAUAA    rule met
CAGUAGCAAUAUUACGGUCU    rule met
CUUGAGCAAUAUUACGAAAA    rule met
UUGCAGCAAUAUUACGGCAG    rule met
AAGCAGCAAUAUUACGUCAC    rule not met
CAACAGCAAUAUUACGUUUG    rule not met
AGCAAGCAAUAUUACGUUUC    rule not met
UCGAAGCAAUAUUACGACCA    rule met
UGCUAGCAAUAUUACGAAGG    rule met
CCCUAGCAAUAUUACGGGCC    rule met

----------
Let's look at some sequences and their measured self-splicing fitness (ln).
assay: self-splicing fitness, log relative to wild type (ln ratio); higher = more splicing; Tetrahymena group I intron in knt gene, E. coli kanamycin selection, DiMSum; sequences stand for … in CUCUCU…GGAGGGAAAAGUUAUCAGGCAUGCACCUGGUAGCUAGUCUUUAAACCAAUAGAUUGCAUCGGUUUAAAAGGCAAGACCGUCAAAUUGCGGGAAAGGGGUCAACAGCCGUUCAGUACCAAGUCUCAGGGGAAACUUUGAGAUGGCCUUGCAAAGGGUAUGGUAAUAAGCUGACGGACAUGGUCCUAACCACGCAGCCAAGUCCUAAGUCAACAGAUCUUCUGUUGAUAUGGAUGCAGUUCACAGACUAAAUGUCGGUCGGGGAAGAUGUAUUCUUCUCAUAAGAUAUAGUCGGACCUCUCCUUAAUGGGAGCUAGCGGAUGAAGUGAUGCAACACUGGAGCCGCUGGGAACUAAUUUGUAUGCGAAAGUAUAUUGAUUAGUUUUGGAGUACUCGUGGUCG; details: 37 °C
testReadout: self-splicing fitness (ln)

ACAAAGCAAUAUUACGGGGA    -1.05
GCCUAGCAAUAUUACGUUGU    0.252
AAGAAGCAAUAUUACGCUAU    -1.44
GCGCAGCAAUAUUACGACAU    0.253
AUACAGCAAUAUUACGCGCC    -0.66
CAGAAGCAAUAUUACGGGUG    -0.429
CUAGAGCAAUAUUACGUUUU    -3.8
AGUCAGCAAUAUUACGGACG    0.0506
CACCAGCAAUAUUACGCGAA    -2.04
CCGCAGCAAUAUUACGCGCG    -1.9
AGCAAGCAAUAUUACGAACA    -0.407
CGUGAGCAAUAUUACGGCCU    -3.57
CGUGAGCAAUAUUACGUGAA    -1.17
GCCGAGCAAUAUUACGACAA    -2.05
UAUUAGCAAUAUUACGAGCU    0.924
UAAAAGCAAUAUUACGCCUG    0.229

----------
assay: self-splicing fitness, log relative to wild type (ln ratio); higher = more splicing; Tetrahymena group I intron in knt gene, E. coli kanamycin selection, DiMSum; sequences stand for … in CUCUCU…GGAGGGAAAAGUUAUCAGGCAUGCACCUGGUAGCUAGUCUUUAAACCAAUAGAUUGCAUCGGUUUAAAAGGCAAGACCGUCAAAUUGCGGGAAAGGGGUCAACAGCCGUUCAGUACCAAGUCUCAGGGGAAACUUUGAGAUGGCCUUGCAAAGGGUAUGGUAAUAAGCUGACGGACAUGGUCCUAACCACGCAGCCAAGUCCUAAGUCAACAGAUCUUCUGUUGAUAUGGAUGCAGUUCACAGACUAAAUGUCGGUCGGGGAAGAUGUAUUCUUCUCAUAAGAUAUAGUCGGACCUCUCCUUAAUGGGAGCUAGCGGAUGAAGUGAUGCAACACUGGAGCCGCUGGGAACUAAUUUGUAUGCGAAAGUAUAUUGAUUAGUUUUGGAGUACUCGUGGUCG; details: 30 °C
// map self-splicing fitness (ln) onto a label; ranges interval 1 = under -3, interval 2 = from -3 up to -2, interval 3 = -2 and over

GAGAAGCAAUAUUACGGCGG    interval 3
CAGAAGCAAUAUUACGUAAA    interval 1
AGCGAGCAAUAUUACGAAGC    interval 1
CGGUAGCAAUAUUACGCCAA    interval 2
CUGAAGCAAUAUUACGGCUU    interval 1
CUAGAGCAAUAUUACGCCAG    interval 3
UCCCAGCAAUAUUACGAUAU    interval 1
UUUCAGCAAUAUUACGGCAG    interval 3
CACUAGCAAUAUUACGUCAU    interval 1
GGCGAGCAAUAUUACGGAUU    interval 3
CGAAAGCAAUAUUACGUUAA    interval 2
AUCCAGCAAUAUUACGCUCG    interval 3
UCCUAGCAAUAUUACGCUAC    interval 2
UUGGAGCAAUAUUACGCCCA    interval 2
